Values from ChEMBL document CHEMBL3994622

test system: UO-31; assay: Growth inhibition of human UO31 cells incubated for 48 hrs by sulforhodamine B assay; type: functional; conditions: UO-31, 48 h
quantity_measured: GI50

Worked examples follow.
[[record]]
given_smiles = "COc1cc2cc(Oc3ccc(NC(=O)Nc4cc(C(F)(F)F)cc(C(F)(F)F)c4)cc3)c(C)nc2cc1OC"
quantity_measured = "GI50"
result = "0.266 to 0.27 µM"

[[record]]
given_smiles = "COc1cc2cc(Oc3ccc(NC(=O)Nc4ccc(Cl)c(C(F)(F)F)c4)cc3)c(C)nc2cc1OC"
quantity_measured = "GI50"
result = "0.924 µM"

[[record]]
given_smiles = "COc1cc2cc(Oc3ccc(NC(=O)Nc4ccc(Cl)c(Cl)c4)cc3)c(C)nc2cc1OC"
quantity_measured = "GI50"
result = "3.44 µM"

[[record]]
given_smiles = "COc1cc2cc(Oc3ccc(NC(=O)Nc4cccc(C(F)(F)F)c4)cc3)c(C)nc2cc1OC"
quantity_measured = "GI50"
result = "1.98 µM"


Next compound, GI50 to be filled in.
Data request, read-out GI50, for Cc1nc2cc(O)c(O)cc2cc1Oc1ccc(NC(=O)Nc2ccc(Cl)c(Cl)c2)cc1
6.97 µM

====

test system: PC-3; assay: Growth inhibition of human PC3 cells incubated for 48 hrs by sulforhodamine B assay; type: functional; settings: PC-3, 48 h, read-out: LC50 (the source's name)
quantity_measured: CC50

Worked examples follow.
[[record]]
given_smiles = "COc1cc2cc(Oc3ccc(NC(=O)Nc4cc(C(F)(F)F)cc(C(F)(F)F)c4)cc3)c(C)nc2cc1OC"
experimental_system = "PC-3"
result = "32.4 µM"

[[record]]
given_smiles = "Cc1nc2cc(O)c(O)cc2cc1Oc1ccc(NC(=O)Nc2ccc(Cl)c(Cl)c2)cc1"
experimental_system = "PC-3"
result = "> 32.5 µM"

[[record]]
given_smiles = "COc1cc2cc(Oc3ccc(NC(=O)Nc4ccc(Cl)c(C(F)(F)F)c4)cc3)c(C)nc2cc1OC"
experimental_system = "PC-3"
result = "> 32.5 µM"


Data request, read-out CC50, for COc1cc2cc(Oc3ccc(NC(=O)Nc4cccc(C(F)(F)F)c4)cc3)c(C)nc2cc1OC
30.4 µM

Data request, read-out CC50, for COc1cc2cc(Oc3ccc(NC(=O)Nc4ccc(Cl)c(Cl)c4)cc3)c(C)nc2cc1OC
21.3 µM

====

Here, each record is paired with measured GI50 data.
tested on: Hs-578T; experiment: Growth inhibition of human Hs 578T cells incubated for 48 hrs by sulforhodamine B assay; type: functional
Supply the numeric figure in µM, leaving out any unit text.

Worked examples follow.
[[record]]
given_smiles = "COc1cc2cc(Oc3ccc(NC(=O)Nc4ccc(Cl)c(Cl)c4)cc3)c(C)nc2cc1OC"
experimental_system = "Hs-578T"
readout_number = 3.53

[[record]]
given_smiles = "COc1cc2cc(Oc3ccc(NC(=O)Nc4cccc(C(F)(F)F)c4)cc3)c(C)nc2cc1OC"
experimental_system = "Hs-578T"
readout_number = 1.44

[[record]]
given_smiles = "Cc1nc2cc(O)c(O)cc2cc1Oc1ccc(NC(=O)Nc2ccc(Cl)c(Cl)c2)cc1"
experimental_system = "Hs-578T"
readout_number = 12.8

[[record]]
given_smiles = "COc1cc2cc(Oc3ccc(NC(=O)Nc4cc(C(F)(F)F)cc(C(F)(F)F)c4)cc3)c(C)nc2cc1OC"
experimental_system = "Hs-578T"
readout_number = 2.65


Next compound, GI50 to be filled in.
Data request, read-out GI50, for COc1cc2cc(Oc3ccc(NC(=O)Nc4ccc(Cl)c(C(F)(F)F)c4)cc3)c(C)nc2cc1OC
0.72
